Tested on: SNB-75 CNS
PROTOCOL_DETAILS: NCI-60 one-dose screen, 48 h
COND: 10 µM unless noted
This is part of a sample that, as a whole, favours compounds with a hit. Of some 83,000 tested, about 20% had one in any assay. The source made the active and inactive calls. How the source made its calls: active means growth percent below 10; inactive means the rest.
A correct response names exactly one class from active, inactive

OCCNC(=S)Nc1ccc(-c2nc(N3C[C@H]4CC[C@@H](C3)O4)c3cccn3n2)cc1
active
Cc1ccsc1C(NC(=O)c1ccccc1)c1cc(Cl)c2cccnc2c1O (stereo not given)
inactive
Nc1nc(Nc2ccccc2)c(C=Nc2ccccc2)c(=O)[nH]1
inactive
COc1cc(NCCCN)c2ncccc2c1
inactive
CCOc1cc2ncc(C#N)c(Nc3ccc(OCc4ccccn4)c(Cl)c3)c2cc1NC(=O)/C=C/CN(C)C
inactive

*Q* Assay result, entry "COc1ccc(C(=O)N2c3ccccc3Sc3ccccc32)c(F)c1" — outcome?
*A* active

*Q* I would be grateful if you could indicate the recorded call for "CC(=O)c1c(C)c2cnc(Nc3ccc(N4CCNCC4)cn3)nc2n(C2CCCC2)c1=O" .
*A* inactive

*Q* Assay result, entry "Cc1cc2c(-c3nc4ccccn4c3Nc3cccc4ccccc34)c(O)c(O)cc2c(O)c1-c1c(C)cc2c(-c3nc4ccccn4c3Nc3cccc4ccccc34)c(O)c(O)cc2c1O" — outcome?
*A* inactive

*Q* Write down the call the test reported for this compound. Item: "Cc1cc(-c2cc(OC(=O)c3ccccc3)ccc2Cl)cc2nnc(Nc3ccc(OCCN4CCCC4)cc3)nc12"
*A* inactive

*Q* Any idea what this test logged for "FC(F)c1nc2ccccc2n1-c1nc(N2CCOCC2)nc(N2CCOCC2)n1" ?
*A* active

*Q* Name the outcome recorded for "CCNC(=O)Nc1nc2ccc(Oc3ccnc(C(=O)NC)c3)cc2s1" in the assay.
*A* inactive

*Q* I'd appreciate the recorded outcome for "Fc1ccc(NCc2cn(-c3ccccc3)nc2-c2ccc(OCc3ccccc3)cc2)cc1Cl" from this test.
*A* inactive

*Q* Please indicate how the test categorized "CCOC(=O)Sc1ncnc2nc[nH]c12" .
*A* inactive

*Q* Please let me know the test result on file for "Cc1cc(C)n(CC(=O)Nc2ccc(-c3nc4ccccc4s3)cc2)n1" .
*A* inactive

*Q* Fill in: this test's call for "C[C@@H](Oc1cc(-n2cnc3ccc(CN4CCN(C)CC4)cc32)sc1C(N)=O)c1ccccc1C(F)(F)F" is ___
*A* active

*Q* Tell me the assay call for "Cc1nc2cc(-c3nn(C(C)C)c4ncnc(N)c34)ccc2o1" please.
*A* active

*Q* Lab log entry: "COc1ccc(C(=O)c2cc(OC)c(OC)c(OC)c2)cc1/C=C/C(=O)c1ccc(F)cc1" — outcome as called in the assay?
*A* inactive

*Q* Status in this test for "CCc1nc2ccc(Cc3ccc(C(=O)NO)cc3)cc2c(=O)n1CCc1ccccc1" ?
*A* active

*Q* Assay result, entry "Nc1nc(N)c2nc(-c3cccc(O)c3)c(-c3cccc(O)c3)nc2n1" — outcome?
*A* inactive

*Q* Identify the outcome logged in this assay for the compound shown: "COc1cc(Nc2ncc3c(n2)-c2ccc(Cl)cc2C(c2c(F)cccc2OC)=NC3)ccc1C(=O)O"
*A* inactive
